Test system: NCI-H460
protocol.notes: NCI tumour cell line growth inhibition, 48 h
Calls of active or inactive are those of the source. Cut-off read from the data, not from the text of the source: active = GI50 up to about 1.1 µM and inactive = higher.
quantity.kind: GI50

## Input // lookup GI50 for NCS(=O)(=O)O
## Output 35.2 µM (inactive)

## Input // next record Cn1c2c(c3ccccc31)CCN(CCCCN1CCCCC1)C2=O
## Output > 100 µM (inactive)

## Input // next record O=C1/C(=C/c2ccccc2Cl)COc2ccc(Br)cc21
## Output > 100 µM (inactive)

## Input // next record CN1C(NCCO)=NS(=O)(=O)c2ccccc21
## Output > 100 µM (inactive)

## Input // next record CCCCCCCSCC1C(=O)C23C(O)C1CCC2C12COC3(O)C(O)C1C(C)(C)CCC2O (stereo unspecified)
## Output 15.1 µM (inactive)

## Input // next record Cc1cc2c(C(C)C)c(O)c(O)c(/C=N/c3ccccc3)c2c(O)c1-c1c(C)cc2c(C(C)C)c(O)c(O)c(/C=N/c3ccccc3)c2c1O
## Output > 100 µM (inactive)

## Input // next record COC(=O)C[C@H]1CCC2(OCCO2)[C@]1(C)C(=O)OC
## Output > 100 µM (inactive)

## Input // next record Cc1c(-c2ccccc2)n(C)c2cn[nH]c(=O)c12
## Output 63.8 µM (inactive)

## Input // next record Nc1cc2c(C3OC(CO)C(O)C3O)n[nH]c2c(=S)[nH]1 (stereo unspecified)
## Output > 100 µM (inactive)

## Input // next record CCCCCCCCCCCCCCCC(=O)ON1C(=S)NC(C)(c2ccccc2)C1=S (stereo unspecified)
## Output > 100 µM (inactive)

## Input // next record COC(=O)C12C34C=CC5(CCC6(C=CC1(CC3)O6)C52C(=O)OC)O4 (stereo unspecified)
## Output > 100 µM (inactive)

###

Test system: U-251
protocol.notes: NCI tumour cell line growth inhibition, 48 h
Activity calls are given as the source filed them. Rule as the data show it: active = GI50 up to about 1.1 µM and inactive = higher.
quantity.kind: GI50

## Input // lookup GI50 for COc1cc(C2=NNC(=O)c3ccccc3N2c2nc(-c3cccs3)nc3ccc(Br)cc23)cc(OC)c1OC
## Output 6.1 µM (inactive)

## Input // next record NCS(=O)(=O)O
## Output > 100 µM (inactive)

## Input // next record Cc1c(Cl)cccc1NC(=O)/C=C/c1ccccc1
## Output > 100 µM (inactive)

## Input // next record N#CC(C#N)=CNC(=S)c1ccncc1
## Output > 100 µM (inactive)

## Input // next record c1n[nH]cc1C12C3C4C5C3C1C5C42 (configuration not stated)
## Output > 100 µM (inactive)

## Input // next record Cc1c(-c2ccccc2)n(C)c2cn[nH]c(=O)c12
## Output 32.3 µM (inactive)

## Input // next record CCCCCCCCCCCCCC(=O)OCC1OC(n2cc(F)c(=O)[nH]c2=O)C(N)C(OC(=O)CCCCCCCCCCCCC)C1O (configuration not stated)
## Output > 100 µM (inactive)

## Input // next record CCCCOC(=O)NC(Nc1cccc(C(F)(F)F)c1)(C(F)(F)F)C(F)(F)F
## Output 36.1 µM (inactive)

## Input // next record O=C(/C=C/c1ccccc1O)c1ccccc1O
## Output > 100 µM (inactive)

## Input // next record CCOP(=O)(OCC)/C(C#N)=C\c1ccsc1
## Output > 100 µM (inactive)

## Input // next record COC(=O)C1CCC(=O)N1CN(C(C)=O)c1cc(OC)ccc1OC (configuration not stated)
## Output > 100 µM (inactive)

## Input // next record Cc1cc(C)c2[s+]snc2c1
## Output 48.9 µM (inactive)
